Entries and their measured CC50 follow.
Assay Overview: Cytotoxicity against MDCK cells by MTS assay
Assay type: cell-based, Canis lupus familiaris
Condition Notes: dog

| Molecule | CC50 |
| --- | --- |
| Cc1cc(C)cc(S(=O)(=O)c2c(C(N)=O)[nH]c3ccc(Cl)cc23)c1 | > 100 µM |
| NC(=O)c1ncn([C@@H]2O[C@H](CO)[C@@H](O)[C@H]2O)n1 [RIBAVIRIN] | > 100 µM |
| NC12CC3CC(CC(C3)C1)C2 [AMANTADINE] | > 100 µM |

###

Entries and their measured MCC follow.
Assay Overview: Cytotoxicity against MDCK cells assessed as drug level causing microscopically detectable alteration of normal cell morphology
Type: cell-based, Canis lupus familiaris
Condition Notes: dog
Metric Name: MCC (µM)

| Molecule | Metric Name | Relation Symbol | Observed |
| --- | --- | --- | --- |
| NC12CC3CC(CC(C3)C1)C2 | MCC | > | 100 |
| Cc1cc(C)cc(S(=O)(=O)c2c(C(=O)NCC(N)=O)[nH]c3ccc(Br)cc23)c1 | MCC | = | 20 |
| Cc1cc(C)cc(S(=O)(=O)c2c(C(=O)NCCS(N)(=O)=O)[nH]c3ccc([N+](=O)[O-])cc23)c1 | MCC | = | 20 |
| Cc1cc(C)cc(S(=O)(=O)c2c(C(=O)NC(C)C(N)=O)[nH]c3ccc(Br)cc23)c1 (stereo not drawn) | MCC | = | 4 |
| Cc1cc(C)cc(S(=O)(=O)c2c(C(=O)NCCC(N)=O)[nH]c3ccc(Br)cc23)c1 | MCC | = | 20 |
| Cc1cc(C)cc(S(=O)(=O)c2c(C(=O)NCCC(N)=O)[nH]c3ccc([N+](=O)[O-])cc23)c1 | MCC | = | 100 |
| Cc1cc(C)cc(S(=O)(=O)c2c(C(=O)NC(C)CS(N)(=O)=O)[nH]c3ccc(Cl)c(F)c23)c1 (stereo not drawn) | MCC | = | 20 |
| Cc1cc(C)cc(S(=O)(=O)c2c(C(=O)NC(C)CC(N)=O)[nH]c3ccc(Cl)c(F)c23)c1 (stereo not drawn) | MCC | = | 20 |
| Cc1cc(C)cc(S(=O)(=O)c2c(C(=O)NCC(N)=O)[nH]c3ccc(Cl)cc23)c1 | MCC | = | 20 |
| Cc1cc(C)cc(S(=O)(=O)c2c(C(N)=O)[nH]c3ccc(Cl)cc23)c1 | MCC | > | 100 |
| NC(=O)c1ncn([C@@H]2O[C@H](CO)[C@@H](O)[C@H]2O)n1 | MCC | > | 100 |
| Cc1cc(C)cc(S(=O)(=O)c2c(C(=O)NCCS(N)(=O)=O)[nH]c3ccc(Cl)cc23)c1 | MCC | = | 20 |
| Cc1cc(C)cc(S(=O)(=O)c2c(C(=O)NC(C)CS(N)(=O)=O)[nH]c3ccc([N+](=O)[O-])cc23)c1 (stereo not drawn) | MCC | = | 20 |
| Cc1cc(C)cc(S(=O)(=O)c2c(C(=O)NC(C)CS(N)(=O)=O)[nH]c3ccc(Br)cc23)c1 (stereo not drawn) | MCC | = | 4 |
| Cc1cc(C)cc(S(=O)(=O)c2c(C(N)=O)[nH]c3ccc(Cl)c(F)c23)c1 | MCC | = | 20 |
| Cc1cc(C)cc(S(=O)(=O)c2c(C(=O)NC(C)CC(N)=O)[nH]c3ccc(Cl)cc23)c1 (stereo not drawn) | MCC | = | 20 |
| Cc1cc(C)cc(S(=O)(=O)c2c(C(=O)NC(C)CC(N)=O)[nH]c3ccc([N+](=O)[O-])cc23)c1 (stereo not drawn) | MCC | = | 20 |
| Cc1cc(C)cc(S(=O)(=O)c2c(C(=O)NC(C)C(N)=O)[nH]c3ccc(Cl)cc23)c1 (stereo not drawn) | MCC | = | 20 |
| Cc1cc(C)cc(S(=O)(=O)c2c(C(=O)NCC(N)=O)[nH]c3ccc(Cl)c(F)c23)c1 | MCC | = | 20 |
| Cc1cc(C)cc(S(=O)(=O)c2c(C(=O)NC(C)CC(N)=O)[nH]c3ccc(Br)cc23)c1 (stereo not drawn) | MCC | ≥ | 4 |
| Cc1cc(C)cc(S(=O)(=O)c2c(C(=O)NCCC(N)=O)[nH]c3ccc(Cl)cc23)c1 | MCC | = | 20 |
| Cc1cc(C)cc(S(=O)(=O)c2c(C(=O)NCC(N)=O)[nH]c3ccc([N+](=O)[O-])cc23)c1 | MCC | = | 100 |
| CC(N)C12CC3CC(CC(C3)C1)C2 (stereo not drawn) | MCC | > | 100 |
